# Tested on: Candida parapsilosis
# assay.name: In-vitro minimum inhibitory concentration against the growth of Candida parapsilosis (ATCC 22019)
# Type: functional
# experimental.setup: Lodderomyces parapsilosis
Parameter: MIC. Scope: all listed entries.

Past entries and their recorded results:
1. C=CCNC(=O)c1[nH]nc2c1C(=O)c1ccccc1C2=O | > 50 µg/mL
2. OC(Cn1cncn1)(Cn1cncn1)c1ccc(F)cc1F | 2 µg/mL
3. O=C(NNc1ccc([N+](=O)[O-])cc1[N+](=O)[O-])c1[nH]nc2c(O)c3ccccc3c(O)c12 | > 50 µg/mL
4. O=C1c2ccccc2C(=O)c2c1n[nH]c2C(=O)NCCO | > 50 µg/mL
5. O=C1c2ccccc2C(=O)c2c1n[nH]c2C(=O)NNc1ccccc1 | > 50 µg/mL
6. CNC(=O)c1[nH]nc2c1C(=O)c1ccccc1C2=O | 50 µg/mL

Incoming: Given the compound NNC(=O)c1[nH]nc2c1C(=O)c1ccccc1C2=O , what is its reported MIC?
Outgoing: > 50 µg/mL

Incoming: Given the compound NNC(=O)c1[nH]nc2c(O)c3ccccc3c(O)c12 , what is its reported MIC?
Outgoing: > 50 µg/mL

Source of measurements: ChEMBL document CHEMBL1140274
